Values from ChEMBL document CHEMBL3872205

# Measurement Protocol: MRT (0 to 72 hrs) in Wistar rat plasma at 15 mg/kg, po by HPLC analysis
# Type: ADME, organism-based
Readout Label: MRT last (h)

INSERT INTO assay_data (smiles_code, readout_label, reading_unit, observed_measurement) VALUES
  ('CCCCC1=NC2(CCCC2)C(=O)N1Cc1ccc2c(ccn2-c2ccccc2-c2nnn[nH]2)c1', 'MRT last', 'h', 10.2);

====

# Measurement Protocol: MRT (0 to infinity) in Wistar rat kidney at 30 mg/kg, po by HPLC analysis
# Format: ADME, organism-based
Readout Label: MRT inf

INSERT INTO measurements (smiles_code, readout_label, observed_measurement) VALUES
  ('CCCCC1=NC2(CCCC2)C(=O)N1Cc1ccc2c(ccn2-c2ccccc2-c2nnn[nH]2)c1', 'MRT inf', '24.1 h');
